In this section, each of the molecules is paired with its reported DPPH %inhibition.
# procedureDetails: DPPH free radical scavenging assay
# Format: biochemical
# experimentalConditions: 62.5 μg/mL

[
  {
    "molecule": "S=C(Nc1ccccn1)NC1CCCCC1 [Compound 1, 1-cyclohexyl-3-(pyridin-2-yl) thiourea]",
    "unitsSymbol": "%",
    "DPPH %inhibition": 48.57
  },
  {
    "molecule": "S=C(Nc1ccc(Cl)cc1)NC1CCCCC1 [Compound 4, 1-(4-chlorophenyl)-3-cyclohexylthiourea]",
    "unitsSymbol": "%",
    "DPPH %inhibition": 48.18
  },
  {
    "molecule": "O=C(O)c1cc(O)c(O)c(O)c1 [Gallic acid, gallic acid, reference compound]",
    "unitsSymbol": "%",
    "DPPH %inhibition": 57.54
  },
  {
    "molecule": "Cc1cccnc1NC(=S)Nc1ccccc1 [Compound 5]",
    "unitsSymbol": "%",
    "DPPH %inhibition": 62.44
  },
  {
    "molecule": "Cc1ccc(NC(=S)NC2CCCCC2)c(C)c1 [Compound 3]",
    "unitsSymbol": "%",
    "DPPH %inhibition": 46.72
  },
  {
    "molecule": "Cc1cccnc1NC(=S)NC1CCCCC1 [Compound 2]",
    "unitsSymbol": "%",
    "DPPH %inhibition": 46.51
  },
  {
    "molecule": "S=C(Nc1ccccc1)Nc1cccc(Cl)c1 [Compound 6, 1-(3-chlorophenyl)-3-phenylthiourea]",
    "unitsSymbol": "%",
    "DPPH %inhibition": 43.49
  }
]

----------
# experimentalSystem: acetylcholinesterase (AChE) (Electrophorus electricus)
# Construct: The AChE was derived from the electric eel, while BChE was obtained from equineserum; from tissue; host or cells: electric eel (tissue not specified)
# Sequence (O42275 24-633): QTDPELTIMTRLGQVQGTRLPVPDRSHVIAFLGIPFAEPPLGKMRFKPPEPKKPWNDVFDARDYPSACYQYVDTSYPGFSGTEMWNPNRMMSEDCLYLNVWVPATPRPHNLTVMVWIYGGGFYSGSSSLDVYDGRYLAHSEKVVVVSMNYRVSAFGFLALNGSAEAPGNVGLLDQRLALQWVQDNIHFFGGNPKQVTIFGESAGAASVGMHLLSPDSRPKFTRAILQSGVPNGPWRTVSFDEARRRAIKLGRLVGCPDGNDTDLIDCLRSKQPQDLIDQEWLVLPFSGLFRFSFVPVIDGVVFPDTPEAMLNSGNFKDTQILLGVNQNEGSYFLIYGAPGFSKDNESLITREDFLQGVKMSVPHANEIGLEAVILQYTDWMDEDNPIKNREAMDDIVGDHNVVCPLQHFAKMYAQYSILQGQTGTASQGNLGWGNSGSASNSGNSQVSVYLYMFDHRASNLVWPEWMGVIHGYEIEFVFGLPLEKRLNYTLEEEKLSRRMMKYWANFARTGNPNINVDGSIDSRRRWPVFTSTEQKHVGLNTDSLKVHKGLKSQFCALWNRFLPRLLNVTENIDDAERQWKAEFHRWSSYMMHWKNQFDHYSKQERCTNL
# procedureDetails: biochemical
# experimentalConditions: read-out: AChE Percent inhibition

[
  {
    "molecule": "Cc1ccc(NC(=S)NC2CCCCC2)c(C)c1 [Compound 3]",
    "unitsSymbol": "%",
    "inhibition at 1000 µg/mL": 65.5
  },
  {
    "molecule": "S=C(Nc1ccccn1)NC1CCCCC1 [Compound 1, 1-cyclohexyl-3-(pyridin-2-yl) thiourea]",
    "unitsSymbol": "%",
    "inhibition at 1000 µg/mL": 88.6
  },
  {
    "molecule": "Cc1cccnc1NC(=S)NC1CCCCC1 [Compound 2]",
    "unitsSymbol": "%",
    "inhibition at 1000 µg/mL": 62.6
  },
  {
    "molecule": "S=C(Nc1ccccc1)Nc1cccc(Cl)c1 [Compound 6, 1-(3-chlorophenyl)-3-phenylthiourea]",
    "unitsSymbol": "%",
    "inhibition at 1000 µg/mL": 67.5
  },
  {
    "molecule": "S=C(Nc1ccc(Cl)cc1)NC1CCCCC1 [Compound 4, 1-(4-chlorophenyl)-3-cyclohexylthiourea]",
    "unitsSymbol": "%",
    "inhibition at 1000 µg/mL": 69.6
  },
  {
    "molecule": "Cc1cccnc1NC(=S)Nc1ccccc1 [Compound 5]",
    "unitsSymbol": "%",
    "inhibition at 1000 µg/mL": 63.3
  }
]

----------
# experimentalSystem: butyryl cholinesterase (BChE) (Equus caballus, UniProt P81908)
# Construct: The AChE was derived from the electric eel, while BChE was obtained from equineserum; from tissue; host or cells: equine serum
# Sequence (P81908 whole entry): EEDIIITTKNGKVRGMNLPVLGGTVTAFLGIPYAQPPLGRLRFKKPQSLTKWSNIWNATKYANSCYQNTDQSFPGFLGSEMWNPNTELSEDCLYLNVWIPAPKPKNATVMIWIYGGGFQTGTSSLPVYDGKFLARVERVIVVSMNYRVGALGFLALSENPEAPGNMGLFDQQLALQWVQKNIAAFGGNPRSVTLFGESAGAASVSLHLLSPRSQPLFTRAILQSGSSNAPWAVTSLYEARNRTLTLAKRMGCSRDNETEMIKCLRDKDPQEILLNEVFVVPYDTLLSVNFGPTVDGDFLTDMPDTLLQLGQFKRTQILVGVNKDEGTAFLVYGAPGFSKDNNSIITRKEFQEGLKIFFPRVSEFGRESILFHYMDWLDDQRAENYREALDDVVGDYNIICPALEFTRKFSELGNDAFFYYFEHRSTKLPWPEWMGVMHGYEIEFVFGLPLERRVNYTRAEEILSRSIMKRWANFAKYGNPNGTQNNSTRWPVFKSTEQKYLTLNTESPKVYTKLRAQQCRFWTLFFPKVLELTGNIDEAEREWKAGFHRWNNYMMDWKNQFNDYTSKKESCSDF
# procedureDetails: Anticholinesterase assay (Elman's test), BChE
# Assay type: biochemical
# experimentalConditions: read-out: BChE Percent inhibition

[
  {
    "compound": "Cc1ccc(NC(=S)NC2CCCCC2)c(C)c1 [Compound 3]",
    "inhibition at 62.5 µg/mL": "44.3%"
  },
  {
    "compound": "S=C(Nc1ccccn1)NC1CCCCC1 [Compound 1, 1-cyclohexyl-3-(pyridin-2-yl) thiourea]",
    "inhibition at 62.5 µg/mL": "65.8%"
  },
  {
    "compound": "Cc1cccnc1NC(=S)NC1CCCCC1 [Compound 2]",
    "inhibition at 62.5 µg/mL": "31.5%"
  },
  {
    "compound": "Cc1cccnc1NC(=S)Nc1ccccc1 [Compound 5]",
    "inhibition at 62.5 µg/mL": "31.9%"
  },
  {
    "compound": "COc1ccc2c3c1O[C@H]1C[C@@H](O)C=C[C@@]31CCN(C)C2 [Galantamine, reference compound]",
    "inhibition at 62.5 µg/mL": "64.9%"
  },
  {
    "compound": "S=C(Nc1ccc(Cl)cc1)NC1CCCCC1 [Compound 4, 1-(4-chlorophenyl)-3-cyclohexylthiourea]",
    "inhibition at 62.5 µg/mL": "33%"
  },
  {
    "compound": "S=C(Nc1ccccc1)Nc1cccc(Cl)c1 [Compound 6, 1-(3-chlorophenyl)-3-phenylthiourea]",
    "inhibition at 62.5 µg/mL": "51.6%"
  }
]
